Biological target: Intestinal-type alkaline phosphatase (Homo sapiens)
Experiment: human IAP activators, SAR follow-up, biochemical, luminescence (AID 493132)
Conditions: purified IAP, CDP-Star luminescence, 30 min
pEC50: −log10 of the molar value.
measure.name: pEC50

Below: 3 compounds and their reported pEC50.
- compound: "O=C(N/N=C/c1ccccc1O)c1n[nH]c2c1CCC2"
  pEC50: 5.08
- compound: "O=C(NC(=S)NNC(=O)c1ccccc1O)c1ccc(F)cc1"
  pEC50: 5.03
- compound: "COc1cccc(C=NNC(=O)C2=NNC(=O)C2C)c1O (stereo unspecified)"
  pEC50: 5.09

[a] CCOc1cccc(C=NNC(=O)c2cc(-c3cccn3C)n[nH]2)c1O
[b] CC(=NNC(=O)C(=O)NN=C(C)c1cccc(O)c1)c1cccc(O)c1
[c] O=C(CCN1C(=O)/C(=C/c2ccccc2Cl)SC1=S)NNC(=O)c1ccccc1O
Input: Please give the order of these compounds when sorted by pEC50, largest value leading. Sort and list the labels as requested.
Output: a, c, b

* * *

Target: Intestinal-type alkaline phosphatase (Homo sapiens)
Test: human IAP activators, SAR follow-up, biochemical, luminescence (AID 493132)
Settings: purified IAP, CDP-Star luminescence, 30 min
Calls of active or inactive are those of the source.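 The calls were made as follows: active = EC50 below 100 µM for activating human gut alkaline phosphatase; inactive = the rest.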
Answer with one of the outcomes t = active, f = inactive

# example entries with known answers
- compound: "CC(=O)Nc1ccc(/C=N/NC(=O)C(=O)N/N=C/c2ccc(NC(C)=O)cc2)cc1"
  discrete.label: "f"
- compound: "COc1cc(/C=N\\NC(=O)C(=O)N/N=C/c2cc(OC)c(O)c(OC)c2)cc(OC)c1O"
  discrete.label: "t"
- compound: "Cc1cc(C(=O)N/N=C\\c2cc(C(C)(C)C)ccc2O)n[nH]1"
  discrete.label: "t"
- compound: "O=C(N/N=C/c1c(O)ccc2ccccc12)C(=O)N/N=C/c1c(O)ccc2ccccc12"
  discrete.label: "f"
- compound: "COc1cccc(C=NNC(=O)c2[nH]nc3c2CCc2ccccc2-3)c1O"
  discrete.label: "t"
- compound: "O=C(NN=Cc1ccccc1)C(=O)NN=Cc1ccccc1"
  discrete.label: "t"
- compound: "Cn1cccc1-c1cc(C(=O)NN=Cc2cc(Br)ccc2O)[nH]n1"
  discrete.label: "t"
- compound: "CC1C(=O)NN=C1C(=O)NN=Cc1ccc(O)cc1O (stereo not given)"
  discrete.label: "t"

Input: So what was the verdict on CC(C)C(=O)NC(=S)Nc1ccccc1C(=O)Nc1ccccc1 in this test?
Output: t

Input: So what was the verdict on C/C(=N\NC(=O)c1[nH]nc2c1CCc1ccccc1-2)c1ccccc1O in this test?
Output: t

Input: So what was the verdict on COc1cc(/C=N/NC(=O)C(=O)N/N=C/c2cc(OC)c(OC)c(OC)c2)cc(OC)c1OC in this test?
Output: f

Input: So what was the verdict on O=C(N/N=C/c1ccc(O)cc1)C(=O)N/N=C/c1ccc(O)cc1 in this test?
Output: t

Input: So what was the verdict on Cc1cc(C(=O)NN=Cc2cccc([N+](=O)[O-])c2O)n[nH]1 in this test?
Output: t

Input: So what was the verdict on O=C(N/N=C/c1cc(Br)ccc1O)c1cc(C2CC2)[nH]n1 in this test?
Output: t

Input: So what was the verdict on O=C1Nc2ccc(Br)cc2C12NNc1ccccc1O2 (stereo not given) in this test?
Output: t

Input: So what was the verdict on CN(C)c1ccc(/C=N/NC(=O)C(=O)N/N=C/c2ccc(N(C)C)cc2)cc1 in this test?
Output: f

Input: So what was the verdict on O=C(N/N=C/c1ccc2c(c1)OCO2)C(=O)N/N=C/c1ccc2c(c1)OCO2 in this test?
Output: f

Input: So what was the verdict on CC(C)Oc1ccccc1/C=N/NC(=O)C(=O)N/N=C/c1ccccc1OC(C)C in this test?
Output: t

Input: So what was the verdict on Cc1cc(C(=O)N/N=C/c2cc(Br)ccc2O)n[nH]1 in this test?
Output: t

Input: So what was the verdict on COc1ccc(OC)c(/C=N/NC(=O)C(=O)N/N=C/c2cc(OC)ccc2OC)c1 in this test?
Output: t

Input: So what was the verdict on CC(=O)Nc1cccc(C(=O)NNC(=O)c2n[nH]c(=O)c3ccccc23)c1 in this test?
Output: t

Input: So what was the verdict on N#CCOc1ccccc1/C=N/NC(=O)C(=O)N/N=C/c1ccccc1OCC#N in this test?
Output: t

Input: So what was the verdict on COc1ccc(-c2csc(Nc3cccc4ccccc34)n2)cc1F in this test?
Output: f

Input: So what was the verdict on CCOc1cc(/C=N/NC(=O)C(=O)N/N=C/c2ccc(O)c(OCC)c2)ccc1O in this test?
Output: f

Input: So what was the verdict on O=C(N/N=C\c1cccc(O)c1)C(=O)N/N=C/c1cccc(O)c1 in this test?
Output: t

Input: So what was the verdict on COc1ccc(/C=N/NC(=O)C(=O)N/N=C/c2ccc(OC)c(OC)c2)cc1OC in this test?
Output: f

* * *

Target: UniProtKB P09923
Experiment: human IAP activators, SAR follow-up, biochemical, luminescence (AID 493132)
Settings: purified IAP, CDP-Star luminescence, 30 min
Active and inactive are the calls of the source.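 How the source made its calls: active means EC50 below 100 µM for activating human gut alkaline phosphatase; inactive means the rest.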
Answer with one of the outcomes true = active, false = inactive

- smiles.repr: "CCOc1cccc(C=NNC(=O)c2cc(C3CC3)[nH]n2)c1O"
  discrete.label: "true"
- smiles.repr: "COc1cccc(C=NNC(=O)C(=O)NN=Cc2cccc(OC)c2O)c1O"
  discrete.label: "true"
- smiles.repr: "COc1cccc(C=NNC(=O)c2cc(-c3cccn3C)n[nH]2)c1O"
  discrete.label: "true"
- smiles.repr: "Cc1ccc(-c2cc(C(=O)NN=Cc3ccccc3O)n[nH]2)o1"
  discrete.label: "true"
- smiles.repr: "CCN(CC)c1ccc(/C=N/NC(=O)C(=O)N/N=C/c2ccc(N(CC)CC)cc2O)c(O)c1"
  discrete.label: "false"

Input: So what was the verdict on C/C(=N\NC(=O)c1cc(C)[nH]n1)c1ccc2ccccc2c1O in this test?
Output: true

Input: So what was the verdict on O=C(NN=Cc1ccc(O)cc1O)C(=O)NN=Cc1ccc(O)cc1O in this test?
Output: true

Input: So what was the verdict on COc1cc(/C=N/NC(=O)C(=O)N/N=C/c2ccc(O)c(OC)c2)ccc1O in this test?
Output: true

Input: So what was the verdict on Cc1cc(C(=O)NN=Cc2cc(Cl)cc([N+](=O)[O-])c2O)n[nH]1 in this test?
Output: true

Input: So what was the verdict on COc1ccc(-c2cc(C(=O)NN=Cc3c(O)ccc4ccccc34)[nH]n2)cc1 in this test?
Output: true

* * *

Target: Intestinal-type alkaline phosphatase (Homo sapiens) (UniProt P09923)
Sequence (P09923 whole entry, looked up): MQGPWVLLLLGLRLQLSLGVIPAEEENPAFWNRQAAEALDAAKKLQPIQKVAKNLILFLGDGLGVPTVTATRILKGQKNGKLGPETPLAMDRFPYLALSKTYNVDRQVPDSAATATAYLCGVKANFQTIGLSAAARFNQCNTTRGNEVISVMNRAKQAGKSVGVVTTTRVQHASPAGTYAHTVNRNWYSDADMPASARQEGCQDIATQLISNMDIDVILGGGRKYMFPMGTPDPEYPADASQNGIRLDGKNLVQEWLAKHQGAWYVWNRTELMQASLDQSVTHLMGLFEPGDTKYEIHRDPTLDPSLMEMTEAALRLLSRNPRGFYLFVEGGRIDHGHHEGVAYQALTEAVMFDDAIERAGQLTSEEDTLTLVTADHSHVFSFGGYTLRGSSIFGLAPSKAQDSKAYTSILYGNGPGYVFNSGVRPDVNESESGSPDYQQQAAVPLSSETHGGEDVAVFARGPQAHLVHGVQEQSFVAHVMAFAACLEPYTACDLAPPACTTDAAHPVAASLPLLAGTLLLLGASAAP
Assay: human IAP activators, SAR follow-up, biochemical, luminescence (AID 493132)
Conditions: purified IAP, CDP-Star luminescence, 30 min
The source made the active and inactive calls.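 The calls were made as follows: active = EC50 below 100 µM for activating human gut alkaline phosphatase; inactive = the rest.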
Answer with one of the outcomes 1 (active), -1 (inactive)

# example entries with known answers
- compound: "O=C(N/N=C/c1c(O)ccc2ccccc12)c1cc(-c2cccs2)[nH]n1"
  discrete.label: 1
- compound: "O=C(NNC(=S)NC(=O)c1ccccc1[N+](=O)[O-])c1ccccc1O"
  discrete.label: 1
- compound: "O=C(N/N=C/c1cc(Br)ccc1O)C(=O)N/N=C/c1cc(Br)ccc1O"
  discrete.label: 1
- compound: "COc1cccc(C=NNC(=O)C(=O)NN=Cc2cccc(OC)c2OC)c1OC"
  discrete.label: 1
- compound: "O=C(NN=Cc1c(O)ccc2ccccc12)c1[nH]ncc1Br"
  discrete.label: 1

Input: So what was the verdict on COc1cc(OC)c(OC)cc1/C=N/NC(=O)C(=O)N/N=C/c1cc(OC)c(OC)cc1OC in this test?
Output: -1

Input: So what was the verdict on O=C(N/N=C\c1ccc2c(c1)OCO2)C(=O)N/N=C/c1ccc2c(c1)OCO2 in this test?
Output: -1

* * *

Biological target: Intestinal-type alkaline phosphatase (Homo sapiens)
Experiment: human IAP activators, SAR follow-up, biochemical, luminescence (AID 493132)
Details: purified IAP, CDP-Star luminescence, 30 min
The source made the active and inactive calls.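 Rule for the calls: active = EC50 below 100 µM for activating human gut alkaline phosphatase; inactive = the rest.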
Answer with one of the outcomes active, inactive

Input: So what was the verdict on CCCCOc1ccc(/C=N/NC(=O)C(=O)N/N=C/c2ccc(OCCCC)cc2)cc1 in this test?
Output: inactive

Input: So what was the verdict on OC(c1nc2ccc(F)cc2[nH]1)C(O)c1nc2ccc(F)cc2[nH]1 (configuration not stated) in this test?
Output: active

Input: So what was the verdict on Cc1ccc(O)c(C=NNC(=O)c2[nH]ncc2Br)c1 in this test?
Output: active

Input: So what was the verdict on COc1cc(OC)cc(C(=O)NNC(=O)c2nn(C)c(=O)c3ccccc23)c1 in this test?
Output: active

Input: So what was the verdict on O=C(N/N=C/c1ccccc1C(=O)O)C(=O)N/N=C/c1ccccc1C(=O)O in this test?
Output: active

Input: So what was the verdict on COC(=O)c1ccc(/C=N/NC(=O)C(=O)N/N=C/c2ccc(C(=O)OC)cc2)cc1 in this test?
Output: inactive

Input: So what was the verdict on O=C(N/N=C/c1ccccc1O)c1cc(C2CC2)[nH]n1 in this test?
Output: active

This collection of values is drawn from PubChem BioAssay AID493132.
